measurement_protocol: pharmacokinetic testing of indoximod prodrugs in liquid formulation in mice
condition_context: mouse, plasma, po, 100 mg/kg
measured_attribute: Tmax (h)
Kindly answer with a numeric value in h, unit omitted.

Problem: I would be grateful if you could share the reported Tmax for Cn1cc(C[C@@H](N)C(=O)O)c2ccccc21 [indoximod, 1-methyl-D-tryptophan, reference compound] .
Result: 1

====

measurement_protocol: pharmacokinetic testing of indoximod salts in capsule formulation in rats
Format: in vivo
condition_context: rat, plasma, po, 185 umol/kg, capsules
measured_attribute: AUC(0-inf) (µM·h)
State just the number; it will be interpreted in µM·h.

Problem: If you can, please state the reported AUC(0-inf) value of Cn1cc(C[C@@H](N)C(=O)O)c2ccccc21 [indoximod, 1-methyl-D-tryptophan, reference compound] .
Result: 1080

Values compiled from patent US20190248739A1.
